Taken from patent US20260317344A1.

# tgt: EGFR (L858R/T790M/C797S) (Homo sapiens, UniProt P00533, C797S/L858R/T790M)
# Sequence (P00533 25-1210 T790M/C797S/L858R): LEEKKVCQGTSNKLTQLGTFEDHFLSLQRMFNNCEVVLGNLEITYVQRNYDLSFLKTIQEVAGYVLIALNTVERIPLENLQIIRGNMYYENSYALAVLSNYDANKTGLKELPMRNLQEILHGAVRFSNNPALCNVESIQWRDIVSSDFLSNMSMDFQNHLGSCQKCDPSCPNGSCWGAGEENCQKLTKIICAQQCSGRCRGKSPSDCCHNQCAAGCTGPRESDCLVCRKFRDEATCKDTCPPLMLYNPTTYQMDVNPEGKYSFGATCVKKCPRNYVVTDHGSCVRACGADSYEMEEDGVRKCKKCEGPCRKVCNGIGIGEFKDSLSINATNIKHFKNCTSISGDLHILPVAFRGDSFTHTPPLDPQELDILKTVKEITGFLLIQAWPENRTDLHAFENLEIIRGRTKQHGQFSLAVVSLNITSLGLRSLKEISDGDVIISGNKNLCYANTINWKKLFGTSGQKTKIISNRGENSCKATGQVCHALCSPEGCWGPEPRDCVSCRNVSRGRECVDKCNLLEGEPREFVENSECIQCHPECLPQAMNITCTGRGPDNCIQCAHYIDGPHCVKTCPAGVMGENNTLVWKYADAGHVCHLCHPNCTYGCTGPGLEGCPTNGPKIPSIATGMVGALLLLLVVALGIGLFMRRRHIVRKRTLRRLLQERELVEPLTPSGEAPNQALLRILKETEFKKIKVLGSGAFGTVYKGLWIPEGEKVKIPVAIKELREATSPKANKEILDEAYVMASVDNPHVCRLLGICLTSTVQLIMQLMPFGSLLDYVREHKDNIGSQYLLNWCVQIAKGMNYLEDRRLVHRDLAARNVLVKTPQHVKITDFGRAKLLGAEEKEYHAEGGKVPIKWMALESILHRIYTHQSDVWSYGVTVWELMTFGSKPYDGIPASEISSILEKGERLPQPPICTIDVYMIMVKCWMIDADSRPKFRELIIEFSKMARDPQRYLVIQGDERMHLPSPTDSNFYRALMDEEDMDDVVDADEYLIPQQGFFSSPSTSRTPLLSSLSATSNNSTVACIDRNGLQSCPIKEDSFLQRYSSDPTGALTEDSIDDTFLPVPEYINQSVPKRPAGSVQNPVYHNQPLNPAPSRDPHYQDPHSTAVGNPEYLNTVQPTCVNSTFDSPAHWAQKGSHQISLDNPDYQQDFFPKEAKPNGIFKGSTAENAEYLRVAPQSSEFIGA
# experiment summary: HotSpot radiometric kinase assay, inhibition of EGFR L858R/T790M/C797S mutant
# stated conditions: 33P ATP, room temperature, 120 m
property name: pIC50
Lab note — pIC50 values are minus log10 of concentrations in M.

substance smiles: CCN1Cc2c(c(C)nn2CCO)/C=C/c2n[nH]c3cnc(cc23)-c2c(C)nn(C)c2O[C@H](C)C1
readout value: 9.66
--
substance smiles: CCOc1nn(CCO)c2c1/C=C/c1n[nH]c3cnc(cc13)-c1c(CC)nn(C)c1O[C@@H](C)CN(CC)C2
readout value: 8.82
--
substance smiles: CCOc1nn(CCO)c2c1/C=C/c1n[nH]c3cnc(cc13)-c1c(C)nn(C)c1O[C@H](C)CN(C(C)C)C2
readout value: 9.00
--
substance smiles: CCOc1nn(CCO)c2c1/C=C/c1n[nH]c3c(C)nc(cc13)-c1cnn(C)c1O[C@@H](C)CN(CC)C2
readout value: 9.39
--
substance smiles: CCOc1nn(CCO)c2c1/C=C/c1n[nH]c3c(C)nc(cc13)-c1cnn(C)c1O[C@H](C)CN(CC)C2
readout value: 9.15

Ask: Field: pIC50 (EGFR (L858R/T790M/C797S) (Homo sapiens, UniProt P00533, C797S/L858R/T790M)). Entry: Cc1nn(C)c2c1-c1cc3c(n[nH]c3cn1)/C=C/c1c(OCC#N)nn([C@@H](C)CO)c1CN(C)C[C@H](C)O2
Reply: 9.17
